# System: MS2 coat protein
# experiment notes: apparent KD of MS2 coat protein; designed switch direction (-1 OFF switch, 1 ON switch): -1; higher = weaker reporter binding
# details: input ligand: none
measured parameter: apparent KD of MS2 coat protein (nM)
Response body: numeric value in nM, unit text excluded.

Note apparent KD of MS2 coat protein for the sequence shown: CAGCAGAGAGGAUAUACUUGAGGAUCACCCAAGUGACACCGCCUGGUGCGAACUUGAAGUAGAAGGUUCGGCUA [Entema] (Eterna round: R97, puzzle: Exclusion 3)
19.7

Note apparent KD of MS2 coat protein for the sequence shown: GAGUGGUGAGGAUAUACAUGAGGAUCACCCAUGUGCUUCAGCUAGGAGACUAGCAUUGGUAGAAGGCAUUACUC [Mod of lroppy 8 - Jieux - Exclusion 3] (Eterna round: R97, puzzle: Exclusion 3)
33.6

Note apparent KD of MS2 coat protein for the sequence shown: CACAAGCUUGGGCUCGCUGACAUGAGGAUCACCCAUGUCGGAUCAGACACCAAACGUCUCGAUCACGACGGAUCCAG [Eternabot (Original) Solution 7] (Eterna round: R97, puzzle: Sensor, turn-off variant 1)
33.3

Note apparent KD of MS2 coat protein for the sequence shown: UUAUUGUGUGUAGGAUAUGCGUGUUAUUAUUAUGCAGAAGGACAUGAGGAUCACCCAUGUGUAUUAUUAUUAUAUAUUAUAUAU [Title] (Eterna round: R96, puzzle: Exclusion NG 1)
27.7

Note apparent KD of MS2 coat protein for the sequence shown: UUACUGCAAGGAUAUACAUGAGGAUCACCCAUGUUAAUGACACGGUGCAGCUUCGACAGUAGAAGGUGCGUGGG [Eternabot (L1) Solution 71] (Eterna round: R97, puzzle: Exclusion 3)
34.7

Note apparent KD of MS2 coat protein for the sequence shown: UGAGAGUGAGGAUAUACGUCGCUGGUCCAGAUGGACGCAUGACAUGAGGAUCACCCAUGUAGAAGGCAUUUCCC [Enxela Mod 8 - Jieux - Exclusion 2] (Eterna round: R97, puzzle: Exclusion 2)
28.4

Note apparent KD of MS2 coat protein for the sequence shown: CGUAGCAAAGUGAGGAUAUCUAGAGCGAUAGCUCUAGAGAAGGCACAUGAGGAUCACCCAUGUGGUCAGCUACG [BmEx4/8-A4] (Eterna round: R97, puzzle: Brourd's mod of Exclusion 4)
82.4

Note apparent KD of MS2 coat protein for the sequence shown: CCGGAAAGGAAGGAUAUGCUAGACGAGAGUCUAGCAGAAGGUCCUACAUGAGGAUCACCCAUGUGGUCCUCCGG [Mat - Exclusion 6 - Eli Mod - D34] (Eterna round: R97, puzzle: Exclusion 6)
1270

Note apparent KD of MS2 coat protein for the sequence shown: CAGUACAGAGGAUAUACAUGAGGAUCACCCAUGUGUUUCAGGUACGAGAGUACCGAAUGUAGAAGGCUGUACUG [jl-ex3-4.27 salish99 mod] (Eterna round: R97, puzzle: Exclusion 3)
24.5

Note apparent KD of MS2 coat protein for the sequence shown: GCCUCACUUGAGGAUCACCCAAGUCAGGAUAUCUACAGGCCGGCCAUACCAGCCUGCAAGAGAAGGGACUCUAA [Isriqu] (Eterna round: R97, puzzle: Exclusion 1)
32.3

Note apparent KD of MS2 coat protein for the sequence shown: UACAUGAGGAUCACCCAUGUUUUGUCGUGUAUGGUAUUUAUCUAGGAUAUCAAGUUAUUUAUGUAUGAGAAGGAGAAUAUUAAU [JMF's solution 36] (Eterna round: R96, puzzle: Exclusion NG 3)
35.2

Note apparent KD of MS2 coat protein for the sequence shown: GAUCAUGCAGGAUAUACAUGGAACAUGAAAUCAUGAAUUUCACAUGAGGAUCACCCAUGUAGAAGGGCAUGAUC [Omei Ex2 A15] (Eterna round: R97, puzzle: Exclusion 2)
24.9

Note apparent KD of MS2 coat protein for the sequence shown: GAAAGCUUUGAGCUCGAUCACAUGAGGAUCACCCAUGUGGGAGCCAGGCGACGGCAUUCUGCGAGGGCGACUUUUGG [Eternabot (L2) Solution 42] (Eterna round: R97, puzzle: Sensor, turn-off variant 1)
15.4

Note apparent KD of MS2 coat protein for the sequence shown: UAAUAGUAUGUUAGGAUAUGCUGGUCGAAAGAUCAGCAGAAGGAACAUGAGGAUCACCCAUGUAGACUAUUUUA [Mod of JL 20 - Jieux - Brourd's mod of Exclusion 4] (Eterna round: R97, puzzle: Brourd's mod of Exclusion 4)
17.8

Note apparent KD of MS2 coat protein for the sequence shown: AUAAAACGAGGAUAUGCUGGGCUUCUGUGAUGCAUAUGCUCACAUGAGGAUCACCCAUGUAGAAGGUGUAAAAU [Laaceve] (Eterna round: R96, puzzle: Exclusion 2)
331

Note apparent KD of MS2 coat protein for the sequence shown: UUGUACCGGUGAGGAUAUUUUUAAUAGAGCUUUAUGAUAUACAUGAGGAUCACCCAUGUUACGUUAAAGAAGGCAUCGGAUUAU [JL JR Sub091 mod 4] (Eterna round: R96, puzzle: Exclusion NG 2)
21.6

Note apparent KD of MS2 coat protein for the sequence shown: UUGUCUAAUGUGAGGAUAUGCUGGUCCAUAGAUCAGCAGAAGGCACAUGAGGAUCACCCAUGUGAUAACACAAU (Eterna round: R97, puzzle: Brourd's mod of Exclusion 4)
21.3

Note apparent KD of MS2 coat protein for the sequence shown: AAAUUCAGAGGAUAUGCGCAUAGAUAAGACUUUUUUUCUUAACAUGAGGAUCACCCAUGUAGAAGGCUGUAAAA [Ex2 #60] (Eterna round: R97, puzzle: Exclusion 2)
18.4

###

# Test system: MS2 coat protein
# experiment notes: apparent KD of MS2 coat protein; higher = weaker reporter binding
# details: Eterna round: R107; input ligand: arginine 13.2 mM
Decision: apparent KD of MS2 coat protein >= 20 nM yields True, all other cases yield False.

Could you tell me if the measured apparent KD of MS2 coat protein of CUACAUUUGUAGAAACCGGUCAACAAUAAUCGAGGACCGGUACGGCCGCCACUCGAUGUAAAAUAAACAUGAGGAUCACCCAUGU [Tryptophan A 12] reaches 20 nM or more?
False

Could you tell me if the measured apparent KD of MS2 coat protein of ACAUGAGGAUCACCCAUGUAAUAAGGAGAAGGAGCGCGUAAGGACGCAGGUAGGUCGCUCGUGGUCCGGCCGCAAGGCCGGACCA [#1 Same State - Arginine A Attempt #8 (HarryS)] reaches 20 nM or more?
False

Could you tell me if the measured apparent KD of MS2 coat protein of GGACUAACUGGAAGGAGCGACGCGCAGAAACUGCAAUUUCCUCCACACGAGGAUCACCCGUGUCAGGUAGGUCGCCAGUUAGUCG [ArgBX 29] reaches 20 nM or more?
False

Could you tell me if the measured apparent KD of MS2 coat protein of GACAUGAGGAUCACCCAUGUACCGCGAGAAGGAGCGCGGAUAAACGCAGGUAGGUCGCUCGUGGGCUCACAUUCAAUUGUAAGCU [Digece] reaches 20 nM or more?
False

Could you tell me if the measured apparent KD of MS2 coat protein of AAUGUAUGGCACAUGAGGAUCACCCAUGUGCGAGGACCGGUACGGCCGCCACUCGGUCGGUGGUUAAUGAAGCUAUACAUUAAUG [XTryp A #13] reaches 20 nM or more?
True

Could you tell me if the measured apparent KD of MS2 coat protein of UAUCCACAUGAGGAUCACCCAUGUAGGGAAGGAGCGGUGAAUGCACCAGGUAGGUCGCCUUGCUGAGGACAGCCGGUGGAUUCGU [Exclusion - Arginine A (Freestyle 26)] reaches 20 nM or more?
False

###

# Test system: K4 kissing-loop RNA reporter;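 further: bound reporter read as fluorescence of individual clusters on recovered sequencing chips by microscopy, with normalized cluster intensities fitted with a binding model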
# experiment notes: apparent KD of K4 kissing-loop reporter; higher = weaker reporter binding
# details: Eterna round: R107; input ligand: none
Decision: apparent KD of K4 kissing-loop reporter >= 0.1 µM yields y, all other cases yield n.

Could you tell me if the measured apparent KD of K4 kissing-loop reporter of AGGCACGAGCAAGGAUAUCGAGUAGAGUGAUGUUCUGCCUGGGUUGGCGCGCAAGGGCCUUCCCAGCGAGAAGGUGCUCGUGCCU [#2 Same State - FMN A Attempt #11 (HarryS)] reaches 0.1 µM or more?
y

Could you tell me if the measured apparent KD of K4 kissing-loop reporter of GUUACGCAUGGAAGGAGCGCAGGCUCAACUUGAAGCUCAGUGAUGUUGAGCAAAUUAAAACUGCAGGUAGGUCGCCAUGUGUAAC [Ex Arginine B K4 27] reaches 0.1 µM or more?
y

Could you tell me if the measured apparent KD of K4 kissing-loop reporter of GCCGUAGAUGGAAGGAGCGUGGUGGACUCGUGAAGUGAUGUUUCAAGUCGAUAUGCCCAACCACAGGUAGGUCGCCAUCUACGGC reaches 0.1 µM or more?
y

Could you tell me if the measured apparent KD of K4 kissing-loop reporter of UUUUGGUUCUGAGGAUAUUCGAAGAAAUAUAGUGAUGUUAUAUAAGGAGGAGGAUGUAGGGAGGAAGGAGAAGGCAGAAGAGGAG [ExFMNB.J] reaches 0.1 µM or more?
y

Could you tell me if the measured apparent KD of K4 kissing-loop reporter of UCUUGAGUAUAUGAUACCAGCAGUGAGAGACAGGAAGUAUAGUGAUGUUAUAUGAGAGAAUGCCCUUGGCAGCGUGUGCGGUGGG [SSTheophylB.S] reaches 0.1 µM or more?
y

Could you tell me if the measured apparent KD of K4 kissing-loop reporter of UGGAGUUGACGAAAAGUCAACUCCUGAGAUACCAGUGACGAAAGUCACCCUUGGCAGCUCACUGGCAGUGAUGUUGCAAAAUAAA [KL-SSTheo-A4] reaches 0.1 µM or more?
n

Could you tell me if the measured apparent KD of K4 kissing-loop reporter of AAAAUAAAGCAGUGAUGUUGCAUAUGAGAAGGAGCGCACGAAAGUGCAGGUAGGUCGCUCAGCCAAGUGGACGAAAACGUCCACA [#OpenEnded 9 #K4Early] reaches 0.1 µM or more?
y

Could you tell me if the measured apparent KD of K4 kissing-loop reporter of GGGAGUAGUGCGGCCGCCACUGAGAAAGAAGAAGAAUGUAGUGAUGUUAUGUAGGAAAGGAAGAACAGGACCGGGCAUUAGAUUU [SSTRyptB.H] reaches 0.1 µM or more?
y

Could you tell me if the measured apparent KD of K4 kissing-loop reporter of UAUAGACAAGUGAUGUUUGUCAUAUCCGAAGGAGCGUCUUCUAAGACAGGUAGGUCGCGGAUUAAUUUUGUUAUGAUACUAUUUA [JR_SSArginiA_Sub016] reaches 0.1 µM or more?
y

Could you tell me if the measured apparent KD of K4 kissing-loop reporter of GUAGGAUGAGGAGGAGGAUGAAUUACUGAAGGAGCGCAUAUAAAUGCAGGUAGGUCGCGGUAAAGAAGUAUAGUGAUGUUAUAUA [SSArgA.G] reaches 0.1 µM or more?
y

Could you tell me if the measured apparent KD of K4 kissing-loop reporter of UUUAUAAAGUCGGCCGCCACUGGAUUUAUGUUUGUUUCGUCUGGAUCAAAGUGAUGUUUUGAGUCCAGGACCGGGACAUUUGUUA [whbob_Ex_Tryp_B_w38] reaches 0.1 µM or more?
n
